molecular target: Estrogen receptor beta (Homo sapiens); assay: Transcriptional agonistic efficacy against ER beta at 10e-6 M was determined by cotransfection in HEC-1 cells; type: functional, cell-based
PARAMETER: Efficacy (%)

The following molecules have reported results that may help.
[
  {
    "MOLECULE": "Oc1ccc(C(=C2C3CCCC2CCC3)c2ccc(F)cc2)cc1",
    "PARAMETER": "Efficacy",
    "VALUE_OBSERVED": 10
  },
  {
    "MOLECULE": "Oc1ccc(C(=C2C3CCCC2CCC3)c2ccc(O)cc2)cc1",
    "PARAMETER": "Efficacy",
    "VALUE_OBSERVED": 2
  }
]

1. Oc1ccc(C(=C2C3CCCC2CCC3)c2ccccc2)cc1
2. Oc1ccc(C(=C2CC3CCC2C3)c2ccc(O)cc2)cc1 (stereo not drawn)
3. Oc1ccc(C(=C2CC3CC2C2CCCC32)c2ccc(O)cc2)cc1 (stereo not drawn)
4. Oc1ccc(C(c2ccc(O)cc2)C2C3CCCC2CCC3)cc1 (stereo not drawn)
5. CC1(C)CC(=C(c2ccc(O)cc2)c2ccc(O)cc2)C[C@]2(C)C(C)(C)[C@H]3CC[C@@]12C3
Problem: Put the items in order so that reported Efficacy rises from first to last. Respond with an ordered listing of the labels, as requested.
Solution: 5, 3, 2, 1, 4

* * *

biological target: Estrogen receptor (Homo sapiens) (UniProt Q92731+P03372); experiment: Ratio of binding affinity for purified human estrogen beta receptors to that of binding affinity for purified human estrogen alpha receptors.
Sequence (Q92731 whole entry): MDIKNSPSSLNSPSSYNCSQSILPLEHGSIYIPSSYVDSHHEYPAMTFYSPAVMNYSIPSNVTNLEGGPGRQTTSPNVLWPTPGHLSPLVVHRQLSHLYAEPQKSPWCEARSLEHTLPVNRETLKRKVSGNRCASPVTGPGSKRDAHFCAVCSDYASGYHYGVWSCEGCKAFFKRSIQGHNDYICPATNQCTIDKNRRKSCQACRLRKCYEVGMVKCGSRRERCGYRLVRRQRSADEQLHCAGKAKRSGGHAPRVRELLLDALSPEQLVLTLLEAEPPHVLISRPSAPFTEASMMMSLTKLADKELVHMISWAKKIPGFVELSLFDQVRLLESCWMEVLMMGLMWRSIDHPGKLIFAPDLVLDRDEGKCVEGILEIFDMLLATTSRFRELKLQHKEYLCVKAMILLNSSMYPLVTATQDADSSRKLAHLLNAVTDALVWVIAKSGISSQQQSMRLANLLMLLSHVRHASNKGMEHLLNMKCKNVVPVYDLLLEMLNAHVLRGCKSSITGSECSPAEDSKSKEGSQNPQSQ
PARAMETER: Ratio

[
  {
    "COMPOUND": "CC1(C)CC(=C(c2ccc(O)cc2)c2ccc(O)cc2)C[C@]2(C)C(C)(C)[C@H]3CC[C@@]12C3",
    "Ratio": 1.4
  },
  {
    "COMPOUND": "Oc1ccc(C(=C2C3CCCC2CCC3)c2ccc(O)cc2)cc1",
    "Ratio": 0.59
  },
  {
    "COMPOUND": "Oc1ccc(C(c2ccc(O)cc2)C2CCCCC2)cc1",
    "Ratio": 2.8
  },
  {
    "COMPOUND": "Oc1ccc(C(=C2C3CCCC2CCC3)c2ccccc2)cc1",
    "Ratio": 1.1
  },
  {
    "COMPOUND": "Oc1ccc(C(=C2C3CCCC2CCC3)c2ccc(O)c(O)c2)cc1",
    "Ratio": 1.7
  },
  {
    "COMPOUND": "Oc1ccc(C(=C2C3CC4CC(C3)CC2C4)c2ccc(O)cc2)cc1",
    "Ratio": 1.3
  },
  {
    "COMPOUND": "Oc1ccc(C(=C2C3CCCC2CCC3)c2cccc(O)c2)cc1",
    "Ratio": 1.9
  },
  {
    "COMPOUND": "Oc1ccc(C(c2ccc(O)cc2)C2C3CCCC2CCC3)cc1 (stereo not given)",
    "Ratio": 0.87
  }
]

a. Oc1ccc(C(=C2CCCCC2)c2ccc(O)cc2)cc1
b. Oc1ccc(C2(c3ccc(O)cc3)C3CCCC2CCC3)cc1
c. CC12CCC(CC1=C(c1ccc(O)cc1)c1ccc(O)cc1)C2(C)C (stereo not given)
d. Oc1ccc(C(=C2CC3CC2C2CCCC32)c2ccc(O)cc2)cc1 (stereo not given)
Problem: Ordering: ascending Ratio. List the labels, following the order given in the request.
Solution: b, d, c, a
(b: 0.81, d: 1.3, c: 3.3, a: 4.9)

I. Oc1ccc(C(=C2C3CCCC2CCC3)c2ccc(F)cc2)cc1
II. CC12CCC(C1)C(C)(C)C2=C(c1ccc(O)cc1)c1ccc(O)cc1 (stereo not given)
III. Oc1ccc(C(=C2CC3CCC2C3)c2ccc(O)cc2)cc1 (stereo not given)
Problem: rank_up(items): orders items by reported Ratio in ascending numerical order. Provide the ranking by listing each label in its place in the requested order.
Solution: II, I, III
